Sourced from patent US20260250381A1

system_under_test: T1, human TREM2 (human) (UniProt Q9NZC2)
T1 sequence (looked up): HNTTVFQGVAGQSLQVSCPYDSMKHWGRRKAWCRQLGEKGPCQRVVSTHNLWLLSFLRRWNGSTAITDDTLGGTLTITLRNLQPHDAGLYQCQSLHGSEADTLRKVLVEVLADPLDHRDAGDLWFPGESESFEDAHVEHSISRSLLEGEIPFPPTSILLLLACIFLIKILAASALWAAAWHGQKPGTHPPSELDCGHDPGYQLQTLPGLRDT
assay_method_text: 2nd screen, 2 nM Ab
measurement_kind: Binding Signal (fold over 6E7 parental antibody) (fold)
Give bare numbers, in fold.

Below, each entry is followed by its recorded Binding Signal (fold over 6E7 parental antibody) result.
6E7 variant V62 (antibody, V domains shown) VH: EVQLVQSGAEVKKPGESLKISCKGSGYSFGSYWIAWVRQMPGKGLEWMGIIYPGDSDTRYAPSFQGQVTISADKSISTAYLQWSSLKASDTAMYFCARQRTFYYDSSGYFDYWGQGTLVTVSS VL: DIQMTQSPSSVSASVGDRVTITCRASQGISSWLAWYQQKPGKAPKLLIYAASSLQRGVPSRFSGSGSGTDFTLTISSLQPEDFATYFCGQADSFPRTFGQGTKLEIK = 1.87
6E7 variant V65 (antibody, V domains shown) VH: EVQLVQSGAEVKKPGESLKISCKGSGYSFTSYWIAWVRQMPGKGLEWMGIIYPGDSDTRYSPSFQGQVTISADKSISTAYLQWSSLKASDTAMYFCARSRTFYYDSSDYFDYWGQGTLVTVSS VL: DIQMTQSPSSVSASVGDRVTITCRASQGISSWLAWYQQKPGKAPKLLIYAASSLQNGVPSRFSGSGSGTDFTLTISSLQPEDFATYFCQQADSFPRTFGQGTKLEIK = 1.29

Would you kindly look at the next entry?
stdin: So what's the measured Binding Signal (fold over 6E7 parental antibody) for this one? 6E7 variant V77 (antibody, V domains shown) VH: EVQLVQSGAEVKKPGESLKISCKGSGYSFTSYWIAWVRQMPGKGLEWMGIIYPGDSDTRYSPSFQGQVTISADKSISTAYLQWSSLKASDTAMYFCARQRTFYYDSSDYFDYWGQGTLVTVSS VL: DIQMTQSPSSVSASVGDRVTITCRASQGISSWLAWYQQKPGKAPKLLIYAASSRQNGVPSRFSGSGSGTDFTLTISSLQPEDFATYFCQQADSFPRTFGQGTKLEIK
stdout: 0.83
